All values here come from patent US9783522B2.

target: human recombinant ATX (Homo sapiens); assay: Enzyme inhibitory test (choline release from LPC, fluorescence); conditions: LPC substrate, room temperature 1 hr, read-out: Experimental Example 1 human ATX IC50
pIC50: −log10 of the molar value.
Tick MET if pIC50 is 8 or greater. Tick NOT MET if pIC50 is less than 8.

Ask: Given the entry Cn1nc(C(=O)O)c2cc(-c3cnc(NCc4cccc(OC(F)(F)F)c4)nc3)ccc21 [Example 74] , answer whether its pIC50 meets or surpasses 8.
Reply: MET

Ask: Could you tell me if the measured pIC50 of COc1ccc(-c2ccc(NCc3cccc(OC(F)(F)F)c3)nc2)cc1C(=O)O [Example 34] reaches 8 or more?
Reply: NOT MET

Ask: Hi team, for COc1cc(-c2ccc(NCc3cccc(OC(F)(F)F)c3)nc2)ccc1OC[C@H]1CC[C@H](C(=O)O)CC1 [Example 126] , is the recorded pIC50 at or above 8?
Reply: NOT MET

Ask: Hi, just wondering whether COc1c(C(=O)O)cc(-c2cnc(NCc3cccc(OC(F)(F)F)c3)nc2)cc1-c1ccoc1 [Example 140] shows pIC50 of 8 or higher.
Reply: NOT MET

Ask: Answer whether pIC50 of COc1ccc(-c2ccc(NCc3cccc(OC(F)(F)F)c3)nc2)cc1OCC(=O)O [Example 129] is greater than or equal to 8.
Reply: NOT MET

Ask: State whether the measured pIC50 reaches 8, counting equality as reaching it, for COc1c(C#N)cc(-c2ccc(NCc3cccc(OC(F)(F)F)c3)nc2)cc1C(=O)O [Example 63]
Reply: NOT MET

Ask: I'd appreciate it if you could say whether COc1ccc(-c2cnc(NCc3cccc(OC(F)(F)F)c3)nc2)cc1C(=O)O [Example 156] has pIC50 at least equal to 8.
Reply: NOT MET

Ask: Reported pIC50 reaches at least 8 for COc1ccc(-c2ccc(NCc3cccc(OC(F)(F)F)c3)nc2)nc1[C@H]1C[C@@H]1C(=O)O [16 (compound 1a)] ?
Reply: MET

Ask: Record O=C(O)c1cc(-c2cnc(NCc3cccc(OC(F)(F)F)c3)nc2)cc(OC2CNC2)c1Cl [Example 30] ; criterion: pIC50 no lower than 8. Met?
Reply: NOT MET

Ask: In plain terms: is recorded pIC50 at least 8 for O=C(O)c1cccc2nc(-c3ccc(NCc4cccc(OC(F)(F)F)c4)nc3)[nH]c12 [Example 2] ?
Reply: NOT MET

Ask: Does the reported pIC50 for Cn1nc(C(=O)O)c2cc(-c3ccc(NCc4cccc(OC(F)(F)F)c4)nc3)ccc21 [Example 7] fall at or above the 8 mark?
Reply: MET

Ask: Is pIC50 at least 8? Consider O=C(O)c1cc(-c2cnc(NCc3cccc(OC(F)(F)F)c3)nc2)cc(OC2COC2)c1Cl [Example 136]
Reply: NOT MET

Ask: I'd appreciate it if you could say whether COc1cc(-c2ccc(NCc3cccc(OC(F)(F)F)c3)nc2)ccc1C1CC1C(=O)O (stereo not drawn) [Example 88] has pIC50 at least equal to 8.
Reply: NOT MET

Ask: pIC50 >= 8 for COc1c(CCC(=O)O)cc(-c2ccc(NCc3cccc(OC(F)(F)F)c3)nc2)cc1C1COC1 [Example 92] ?
Reply: NOT MET

Ask: Is it the case that COc1ccc(-c2cnc(NCc3cccc(OC(F)(F)F)c3)nc2)nc1[C@H]1C[C@@H]1C(=O)O [17 (compound 4a)] has pIC50 reaching or exceeding 8?
Reply: MET

Ask: Item O=C(O)CN1CCN(c2ccc(-c3ccc(NCc4cccc(OC(F)(F)F)c4)nc3)cc2F)C1=O [Example 44] with pIC50 of 8 or above?
Reply: NOT MET

Ask: Item COc1ccc(-c2ccc(NCc3cccc(C(C)C)c3)nc2)cc1C(=O)O [Example 176] with pIC50 of 8 or above?
Reply: NOT MET

Ask: // inclusive: pIC50 at least 8? input: COc1c(Cn2ccnc2)cc(-c2ccc(NCc3cccc(OC(F)(F)F)c3)nc2)cc1C(C)(C)C(=O)O [Example 108]
Reply: NOT MET

Ask: Hi team, for COc1ccc(-c2ccc(NCc3cccc(OC(F)(F)F)c3)nc2)cc1CCC(=O)O [Example 22] , is the recorded pIC50 at or above 8?
Reply: NOT MET

Ask: Hello, I need to know if COc1ccc(-c2cnc(NCc3cccc(OC(F)(F)F)c3)nc2)cc1CCC(=O)O [Example 21] has measured pIC50 not below 8. Thanks!
Reply: NOT MET

Ask: Textbook exercise: given the entry O=C(O)c1ccc2nc(-c3ccc(NCc4cccc(OC(F)(F)F)c4)nc3)oc2c1 [Example 3] , state whether its pIC50 is greater than or equal to 8.
Reply: NOT MET

* * *

biological target: human recombinant ATX (Homo sapiens, UniProt Q13822); test: Enzyme inhibitory test (choline release from LPC, fluorescence); conditions: LPC substrate, room temperature 1 hr, read-out: Experimental Example 1 human ATX IC50
Description: […]
MEASURED_PROPERTY: IC50 (µM)
Give the value, in units of µM, as a plain number.

Ask: Identify IC50 associated with the molecule "O=C(O)CCc1cc(-c2cnc(NCc3cccc(OC(F)(F)F)c3)nc2)ccc1Cl"
Reply: 0.013

Ask: Determine its reported IC50: "COc1ccc(-c2ccc(NCc3cccc(OC(F)(F)F)c3)nc2)cc1CC(=O)O"
Reply: 0.012

Ask: Give the measured IC50 for "COCCn1nc(C(=O)O)c2cc(-c3ccc(NCc4cccc(OC(F)(F)F)c4)nc3)ccc21"
Reply: 0.009

Ask: Determine from records and report IC50 for "O=C(O)c1cc(-c2cnc(NCc3cccc(OC(F)(F)F)c3)nc2)cc(OC2CCOCC2)c1Cl"
Reply: 0.01

Ask: Supply measured IC50 of "COc1c(C#N)cc(-c2ccc(NCc3cccc(OC(F)(F)F)c3)nc2)cc1C(C)(C)C(=O)O" in your reply.
Reply: 0.015

Ask: Give IC50 for the following molecule: "COc1c(C#N)cc(-c2cnc(NCc3cccc(OC(F)(F)F)c3)nc2)cc1CCC(=O)O"
Reply: 0.007

Ask: Look up IC50 of "CS(=O)(=O)CCCn1nc(C(=O)O)c2cc(-c3ccc(NCc4cccc(OC(F)(F)F)c4)nc3)ccc21" and report it.
Reply: 0.006

Ask: Hello, please tell me recorded IC50 for this one: "COCCOc1cc(-c2cnc(NCc3cccc(OC(F)(F)F)c3)nc2)cc(C(=O)O)c1Cl"
Reply: 0.015

Ask: Find the measured IC50 of "COc1c(C(=O)O)cc(-c2cnc(NCc3cccc(OC(F)(F)F)c3)nc2)cc1-c1ccncc1" and report it.
Reply: 0.01

Ask: Give recorded IC50. "COc1ccc(-c2ccc(NCc3cccc(OC(F)(F)F)c3)nc2)c2[nH]nc(C(=O)O)c12"
Reply: 0.01

Ask: Supply IC50 value. Item: "COc1c(C#N)cc(-c2ccc(NCc3cccc(OC(F)(F)F)c3)nc2)cc1CCC(=O)O"
Reply: 0.017

Ask: Tell me its IC50 given "COc1cc(-c2ccc(NCc3cccc(OC(F)(F)F)c3)nc2)cc(OC)c1CCC(=O)O" as the entry.
Reply: 0.007
